# target.or.system: UT-B (Mus musculus)
# Sequence (Q8VHL0 whole entry): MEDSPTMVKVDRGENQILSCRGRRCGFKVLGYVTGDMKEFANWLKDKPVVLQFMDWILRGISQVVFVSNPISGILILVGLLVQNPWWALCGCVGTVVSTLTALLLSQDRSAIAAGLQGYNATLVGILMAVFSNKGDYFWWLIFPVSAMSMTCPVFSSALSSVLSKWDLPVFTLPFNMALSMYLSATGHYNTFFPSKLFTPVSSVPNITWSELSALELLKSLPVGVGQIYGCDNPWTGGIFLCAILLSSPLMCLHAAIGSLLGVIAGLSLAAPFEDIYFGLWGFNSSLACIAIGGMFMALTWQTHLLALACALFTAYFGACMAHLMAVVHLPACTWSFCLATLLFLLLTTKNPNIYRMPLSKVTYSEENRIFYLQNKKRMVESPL
# assay.info: Erythrocyte lysis assay of UT-B inhibition
# Format: cell-based
# Parameters: Screening was performed using mouse erythrocytes, which strongly express UT-B; endogenous in cells; host or cells: erythrocytes in whole blood of wild-type CD1 mice
# settings: Table 2, synthesized inhibitors, red blood cell lysis assay (n = 3), single-site saturation model; read-out: IC50
# Method: Screening was performed using mouse erythrocytes, which strongly express UT-B and are highly water permeable because the cells also express aquaporin-1 (AQP1) water channels. […] UT-B inhibition prevents acetamide efflux, allowing unopposed cell swelling and consequent cell lysis, which was recorded by reduced near-infrared light absorption at 710 nm. […]
pIC50: −log10 of the molar value.
Would you please tag the item 1.0 when its pIC50 is 7 or above, and 0.0 when it is below?

Solved cases below.
Request: Could you tell me if the measured pIC50 of O=S(=O)(c1ccc(Br)cc1)c1nnn2c1nc(NCc1cccs1)c1sccc12 reaches 7 or more?
Result: 1.0

Request: Could you tell me if the measured pIC50 of CC(C)c1ccc(S(=O)(=O)c2nnn3c2nc(NCc2cccc4ccccc24)c2sccc23)cc1 reaches 7 or more?
Result: 0.0

Request: Could you tell me if the measured pIC50 of O=S(=O)(c1ccc(OC(F)(F)F)cc1)c1nnn2c1nc(NCc1cccs1)c1sccc12 reaches 7 or more?
Result: 0.0

Next:
Request: Could you tell me if the measured pIC50 of CCc1ccc(S(=O)(=O)c2nnn3c2nc(NCc2cccs2)c2sccc23)cc1 reaches 7 or more?
Result: 1.0

Request: Could you tell me if the measured pIC50 of O=S(=O)(c1ccc(F)cc1)c1nnn2c1nc(NCc1cccs1)c1sccc12 reaches 7 or more?
Result: 0.0
